# experiment_description: Stability in rat hepatocytes assessed as half life
# Assay type: ADME, cell-based, Hepatocyte

- molecule: "C[C@@H](n1cc(-c2cncc(N(C)C)c2)nn1)n1ccc(N2CCC[C@@H](NCC3CC3)C2)cc1=O"
  half-life: "> 4 h"

====

# experiment_description: Lipophilicity, logD of compound in 1-octanol/PBS at pH 7.4 incubated for 24 hrs by HPLC analysis
# Assay type: physicochemical
Each item that follows carries a reported logD at 24 h.

- compound: "CC(n1cc(-c2cccnc2)nn1)n1ccc(N2CCC[C@@H](NCC3CCC3)C2)cc1=O (stereo partly drawn)"
  logD at 24 h: 0.87
- compound: "COc1cncc(-c2cn(C(C)c3ccc(N4CCC[C@@H](NCC5CCC5)C4)nn3)nn2)c1 (stereo partly drawn)"
  logD at 24 h: 1.62
- compound: "COc1cncc(-c2nnc(C(C)n3ccc(N4CCC[C@@H](NCC5CCC5)C4)cc3=O)s2)c1 (stereo partly drawn)"
  logD at 24 h: 1.45
- compound: "COc1cncc(-c2cn(Cc3ccc(N4CCC[C@@H](NCC5CCC5)C4)nc3)nn2)c1"
  logD at 24 h: 1.46
- compound: "COc1cncc(-c2cn(Cc3ccc(N4CCC[C@@H](NCC5CCC5)C4)cn3)nn2)c1"
  logD at 24 h: 1.21
- compound: "COc1cncc(-c2cn(C(c3ccc(N4CCC[C@@H](NCC5CCC5)C4)nn3)C(F)(F)F)nn2)c1 (stereo partly drawn)"
  logD at 24 h: 2.43
- compound: "COc1cncc(-c2cn([C@H](C)n3ccc(N4CCC[C@@H](NCC5CCC5)C4)cc3=O)nn2)c1"
  logD at 24 h: 1.5
- compound: "COc1cncc(-c2cn(Cn3ccc(N4CCC[C@@H](NCC5CCC5)C4)cc3=O)nn2)c1"
  logD at 24 h: 1.51
- compound: "COc1cncc(-c2cn(Cc3ccc(N4CCCCC(NCC5CCC5)C4)nn3)nn2)c1 (stereo not drawn)"
  logD at 24 h: 1.18
- compound: "CC(n1cc(-c2cncc(N(C)C)n2)nn1)n1ccc(N2CCC[C@@H](NCC3CCC3)C2)cc1=O (stereo partly drawn)"
  logD at 24 h: 1.69
- compound: "COc1cc(-c2cn(Cc3ccc(N4CCC(NCC5CCC5)C4)nn3)nn2)c2cn[nH]c2c1 (stereo not drawn)"
  logD at 24 h: 1.95
- compound: "COc1cncc(-c2cn(Cc3ccc(N4CCC[C@@H](NCC5CCC5)C4)nn3)nn2)c1"
  logD at 24 h: 1.47
- compound: "COc1cncc(-c2cn(Cc3ccc(N4CC5(CCC5NCC5CCC5)C4)nn3)nn2)c1 (stereo not drawn)"
  logD at 24 h: 1.54
- compound: "CC(n1cc(-c2cncc(C#N)c2)nn1)n1ccc(N2CCC[C@@H](NCC3CCC3)C2)cc1=O (stereo partly drawn)"
  logD at 24 h: 0.97
- compound: "COc1cc(-c2cn(Cc3ccc(N4CCC[C@@H](NC(=O)C5CCC5)C4)nn3)nn2)c2cn[nH]c2c1"
  logD at 24 h: 2.61
- compound: "CC(n1cc(-c2cncc(N(C)C)n2)nn1)n1ccc(N2CCC[C@@H](NCC3CC3)C2)cc1=O (stereo partly drawn)"
  logD at 24 h: 1.17
- compound: "CC(n1cc(-c2cncc(N3CCCC3)c2)nn1)n1ccc(N2CCC[C@@H](NCC3CC3)C2)cc1=O (stereo partly drawn)"
  logD at 24 h: 1.93
- compound: "COc1cc(-c2cn(Cc3ccc(N4CCC[C@H](NCC5CCC5)C4)nn3)nn2)c2cn[nH]c2c1"
  logD at 24 h: 1.89
